Data origin, for the record: ChEMBL document CHEMBL5150002

- target-system: DNA damage-binding protein 1/Cyclin-dependent kinase 12/Cyclin-K (Homo sapiens, UniProt O75909+Q16531+Q9NYV4)
- Sequence (O75909 whole entry, the tested form may be a part): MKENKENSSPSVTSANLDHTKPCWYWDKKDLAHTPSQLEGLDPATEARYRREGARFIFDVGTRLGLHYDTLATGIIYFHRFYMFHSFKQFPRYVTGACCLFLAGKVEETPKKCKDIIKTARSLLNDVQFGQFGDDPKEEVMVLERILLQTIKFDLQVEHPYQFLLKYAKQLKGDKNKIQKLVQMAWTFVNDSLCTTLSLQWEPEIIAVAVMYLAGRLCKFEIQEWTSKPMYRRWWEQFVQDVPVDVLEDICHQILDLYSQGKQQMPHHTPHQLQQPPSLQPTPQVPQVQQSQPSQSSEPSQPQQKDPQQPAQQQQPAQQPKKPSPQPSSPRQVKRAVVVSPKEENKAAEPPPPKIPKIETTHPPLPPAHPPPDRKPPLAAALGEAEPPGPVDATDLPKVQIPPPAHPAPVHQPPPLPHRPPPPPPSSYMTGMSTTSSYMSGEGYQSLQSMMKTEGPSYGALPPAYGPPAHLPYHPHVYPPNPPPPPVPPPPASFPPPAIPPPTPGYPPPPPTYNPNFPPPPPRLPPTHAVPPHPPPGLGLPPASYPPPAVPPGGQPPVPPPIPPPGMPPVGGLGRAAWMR
- Sequence (Q9NYV4 whole entry, the tested form may be a part): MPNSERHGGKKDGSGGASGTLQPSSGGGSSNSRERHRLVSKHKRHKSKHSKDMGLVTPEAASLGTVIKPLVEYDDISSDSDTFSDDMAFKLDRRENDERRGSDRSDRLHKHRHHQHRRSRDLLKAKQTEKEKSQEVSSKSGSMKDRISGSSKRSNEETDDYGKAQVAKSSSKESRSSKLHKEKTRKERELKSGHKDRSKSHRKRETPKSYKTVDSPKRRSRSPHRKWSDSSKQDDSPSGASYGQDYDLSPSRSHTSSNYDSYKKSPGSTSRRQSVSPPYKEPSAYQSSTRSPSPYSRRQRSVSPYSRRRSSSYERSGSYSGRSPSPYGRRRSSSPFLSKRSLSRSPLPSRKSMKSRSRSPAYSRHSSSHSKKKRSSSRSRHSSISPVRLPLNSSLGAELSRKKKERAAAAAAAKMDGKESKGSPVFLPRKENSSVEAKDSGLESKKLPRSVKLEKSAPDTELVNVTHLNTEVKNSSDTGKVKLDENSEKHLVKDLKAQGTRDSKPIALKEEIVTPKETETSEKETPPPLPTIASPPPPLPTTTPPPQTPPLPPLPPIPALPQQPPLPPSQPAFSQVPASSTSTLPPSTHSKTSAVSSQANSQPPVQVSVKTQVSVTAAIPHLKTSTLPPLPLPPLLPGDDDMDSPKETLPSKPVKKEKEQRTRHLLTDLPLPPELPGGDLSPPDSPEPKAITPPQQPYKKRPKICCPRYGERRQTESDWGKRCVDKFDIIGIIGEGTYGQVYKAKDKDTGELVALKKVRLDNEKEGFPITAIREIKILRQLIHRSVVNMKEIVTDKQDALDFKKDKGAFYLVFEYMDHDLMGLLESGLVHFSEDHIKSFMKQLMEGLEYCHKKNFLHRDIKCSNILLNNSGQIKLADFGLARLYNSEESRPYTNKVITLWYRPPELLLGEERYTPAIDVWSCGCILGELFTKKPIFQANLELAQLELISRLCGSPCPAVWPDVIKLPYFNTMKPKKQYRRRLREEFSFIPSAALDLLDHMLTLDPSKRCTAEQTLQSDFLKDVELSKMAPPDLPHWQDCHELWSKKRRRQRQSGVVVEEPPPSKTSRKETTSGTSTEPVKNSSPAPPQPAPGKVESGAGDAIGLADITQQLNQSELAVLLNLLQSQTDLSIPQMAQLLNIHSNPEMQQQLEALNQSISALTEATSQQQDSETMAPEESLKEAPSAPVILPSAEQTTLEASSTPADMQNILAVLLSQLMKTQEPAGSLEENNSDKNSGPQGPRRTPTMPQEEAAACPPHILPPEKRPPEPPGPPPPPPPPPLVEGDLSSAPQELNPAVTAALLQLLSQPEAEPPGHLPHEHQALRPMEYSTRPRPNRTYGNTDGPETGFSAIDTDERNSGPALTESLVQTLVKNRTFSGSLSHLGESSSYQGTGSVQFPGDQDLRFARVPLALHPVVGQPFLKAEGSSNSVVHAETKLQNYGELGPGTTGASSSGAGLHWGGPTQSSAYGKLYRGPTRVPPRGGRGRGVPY
- Sequence (Q16531 whole entry, the tested form may be a part): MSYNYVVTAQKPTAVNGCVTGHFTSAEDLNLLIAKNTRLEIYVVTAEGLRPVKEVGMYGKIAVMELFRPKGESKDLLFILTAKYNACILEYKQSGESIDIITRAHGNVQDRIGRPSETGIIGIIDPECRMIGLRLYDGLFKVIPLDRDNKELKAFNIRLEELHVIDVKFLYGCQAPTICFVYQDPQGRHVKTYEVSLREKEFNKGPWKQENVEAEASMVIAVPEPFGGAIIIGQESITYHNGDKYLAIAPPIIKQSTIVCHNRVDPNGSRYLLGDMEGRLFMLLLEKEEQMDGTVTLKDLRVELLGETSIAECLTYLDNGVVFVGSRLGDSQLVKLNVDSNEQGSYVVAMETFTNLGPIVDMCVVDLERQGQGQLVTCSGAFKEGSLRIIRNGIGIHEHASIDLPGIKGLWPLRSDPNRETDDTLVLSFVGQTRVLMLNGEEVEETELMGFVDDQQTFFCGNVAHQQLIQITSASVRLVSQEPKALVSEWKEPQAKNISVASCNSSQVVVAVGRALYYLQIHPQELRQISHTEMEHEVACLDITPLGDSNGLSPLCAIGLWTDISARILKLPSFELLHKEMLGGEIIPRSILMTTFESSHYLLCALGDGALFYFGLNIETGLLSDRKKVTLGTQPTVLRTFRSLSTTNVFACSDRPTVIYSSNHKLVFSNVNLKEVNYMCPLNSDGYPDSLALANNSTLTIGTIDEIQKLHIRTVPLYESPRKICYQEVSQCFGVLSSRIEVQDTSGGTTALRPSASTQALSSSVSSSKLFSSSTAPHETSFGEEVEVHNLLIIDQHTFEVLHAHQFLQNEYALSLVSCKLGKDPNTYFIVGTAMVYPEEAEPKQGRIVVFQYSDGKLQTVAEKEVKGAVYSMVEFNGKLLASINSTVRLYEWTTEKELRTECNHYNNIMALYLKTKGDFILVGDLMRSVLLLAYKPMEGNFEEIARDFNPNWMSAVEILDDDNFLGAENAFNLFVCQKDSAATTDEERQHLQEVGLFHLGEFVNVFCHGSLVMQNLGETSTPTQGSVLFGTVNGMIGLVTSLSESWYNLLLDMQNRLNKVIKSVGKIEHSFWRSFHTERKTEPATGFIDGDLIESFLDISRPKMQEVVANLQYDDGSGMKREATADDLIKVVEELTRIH
- experiment-description: Molecular glue activity at human CDK12/CCNK (11 to 267 residues)/human DDB1-CUL4-RBX1 expressed in baculovirus expression system in human 293 TA cells assessed as CCNK protein degradation
quantity-kind: EC50
The reply should consist of the numeric value with the unit placed after it.

Query: Identify EC50 associated with the compound `Cc1cccc(Nc2nc(CC(=O)Nc3ncc(C)s3)cs2)n1`
Response: 132 nM

Query: Report measured EC50; entry is `Cc1cnc(NC(=O)Cc2csc(Nc3cccc(CO)n3)n2)s1`
Response: 41 nM
